Measured on: T1, human TGFβ2, mature receptor-binding domain (human, UniProt P09858 303-414 (pig entry), The mature TGFβ2 is a disulfide-linked homodimer of this 112-residue chain. The 4A11 epitope spans both monomers (p-1207).)
T1 construct: Peprotech; also called TGFb2
T1 sequence: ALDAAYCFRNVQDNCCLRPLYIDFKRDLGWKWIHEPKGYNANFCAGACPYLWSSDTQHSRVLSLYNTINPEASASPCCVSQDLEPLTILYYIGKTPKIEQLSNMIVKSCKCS
Method summary: BIAcore T200
Observed property: pKd
Answer as the number alone; pKd is minus log10 of concentration in mol/L.

Look up pKd for this binder: h4A11.v7.6 (antibody, V domains shown) VH: EQQLQESGPGLVKPSETLSLTCTVTGFSLSSYTVNWVRQPAGKGLEWIGYISYGGSAYYASWANGRFTISKDSSKNQVSLKLSSVTAADTAVYFCARHMQVGGAPTGSMAAFDPWGPGTLVTVSS VL: EAVLTQSPGTLSLSPGERATLSCQSSQSVYNNNYLSWFQQKPGQAPRLLIYGASTLTSGVPDRFSGSGSGTDFTLTISRLEPEDFAVYYCAGGYSGSSDKYAFGGGTKVEIK
11.24
